biological target: human Gal-1 (hGal-1); test: Competitive binding assay: biotinylated hGal-1 binding to microplate-adsorbed asialofetuin (ASF); details: Activity on hGal-1; binding of biotinylated hGal-1 to ASF-coated plates; mean values
Sequence (P09382 2-135 limits assumed): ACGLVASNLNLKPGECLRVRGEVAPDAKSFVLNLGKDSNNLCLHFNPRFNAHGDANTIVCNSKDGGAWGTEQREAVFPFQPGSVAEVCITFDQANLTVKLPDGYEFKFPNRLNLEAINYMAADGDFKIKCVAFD
Provide the recorded IC50 for the entries that follow.
Answers are plain numbers, in µM.

**Query** Any idea what IC50 was measured for COc1cccc(N(C(=O)[C@@H]2O[C@H](CO)[C@H](O)[C@H](n3cc(-c4cc(F)c(F)c(F)c4)nn3)[C@H]2OC)[C@H]2CCCC[C@@H]2O)c1 ?
**Result** 0.8

**Query** Which IC50 reading was recorded for the compound CO[C@@H]1[C@@H](n2cc(-c3cc(F)c(F)c(F)c3)nn2)[C@@H](O)[C@@H](CO)O[C@H]1C(=O)N(Cc1ccnn1C(C)C)[C@H]1CCCC[C@@H]1O ?
**Result** 1.43

Okay, here is my list. What is IC50 for each of these?
1. Nc1nc(Cl)c(CN(C(=O)[C@@H]2O[C@H](CO)[C@H](O)[C@H](n3cc(-c4cc(F)c(F)c(F)c4)nn3)[C@H]2O)[C@H]2CCCC[C@@H]2O)s1
2. Cn1ccnc1CN(C(=O)[C@@H]1O[C@H](CO)[C@H](O)[C@H](n2cc(-c3cc(F)c(F)c(F)c3)nn2)[C@H]1O)[C@H]1CCCC[C@@H]1O
3. CO[C@@H]1[C@@H](n2cc(-c3ccc(C#N)c(F)c3)nn2)[C@@H](O)[C@@H](CO)O[C@H]1C(=O)N(c1cc(Cl)cc(C#N)c1)[C@H]1CCCC[C@@H]1O
4. O=C(CO[C@@H]1[C@@H](n2cc(-c3cc(F)c(F)c(F)c3)nn2)[C@@H](O)[C@@H](CO)O[C@H]1C(=O)N(c1cc(Cl)cc(Cl)c1)[C@H]1CCCC[C@@H]1O)N1CC[C@@H](O)C1
5. CO[C@@H]1[C@@H](n2cc(-c3ccc(Cl)c(F)c3F)nn2)[C@@H](O)[C@@H](CO)O[C@H]1C(=O)N(c1cc(Cl)cc(C#N)c1)[C@H]1CCCC[C@@H]1O

**Result**
1: 3.18; 2: 12.3; 3: 0.618; 4: 0.134; 5: 0.123

Batch of 4 compounds: report IC50 for each.
1. CO[C@@H]1[C@@H](n2cc(-c3cc(F)c(Br)c(F)c3)nn2)[C@@H](O)[C@@H](CO)O[C@H]1C(=O)N(c1ccc2scnc2c1)[C@H]1CCCC[C@@H]1O
2. Cc1ncncc1CN(C(=O)[C@@H]1O[C@H](CO)[C@H](O)[C@H](n2cc(-c3cc(F)c(F)c(F)c3)nn2)[C@H]1O)[C@H]1CCCC[C@@H]1O
3. CO[C@@H]1[C@@H](n2cc(-c3cc(F)c(Cl)c(Cl)c3)nn2)[C@@H](O)[C@@H](CO)O[C@H]1C(=O)N(c1ccc(F)c(F)c1)[C@H]1CCCC[C@@H]1O
4. CC(=O)O[C@@H]1[C@@H](n2cc(-c3cc(F)c(Cl)c(F)c3)nn2)[C@@H](O)[C@@H](CO)O[C@H]1C(=O)N(Cc1ccccc1C(F)(F)F)[C@H]1CCCC[C@@H]1O

**Result**
1.08
4.41
1.24
1.17
